// provenance: paper PMC6013488

Biological target: CDK9/cyclin K (Homo sapiens)
Construct: purchased Invitrogen (ThermoFisher) PV4335
Sequence (P50750 whole entry): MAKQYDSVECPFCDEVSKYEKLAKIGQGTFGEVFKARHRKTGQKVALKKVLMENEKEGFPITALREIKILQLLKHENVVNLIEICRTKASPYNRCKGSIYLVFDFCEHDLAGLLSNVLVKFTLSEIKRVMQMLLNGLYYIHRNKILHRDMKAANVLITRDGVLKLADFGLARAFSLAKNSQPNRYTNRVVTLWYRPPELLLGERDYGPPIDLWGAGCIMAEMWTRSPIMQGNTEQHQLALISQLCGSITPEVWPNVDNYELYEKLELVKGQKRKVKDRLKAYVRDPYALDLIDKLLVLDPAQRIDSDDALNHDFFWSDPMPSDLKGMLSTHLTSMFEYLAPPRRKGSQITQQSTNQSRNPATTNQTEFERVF
Sequence (O75909 whole entry partner): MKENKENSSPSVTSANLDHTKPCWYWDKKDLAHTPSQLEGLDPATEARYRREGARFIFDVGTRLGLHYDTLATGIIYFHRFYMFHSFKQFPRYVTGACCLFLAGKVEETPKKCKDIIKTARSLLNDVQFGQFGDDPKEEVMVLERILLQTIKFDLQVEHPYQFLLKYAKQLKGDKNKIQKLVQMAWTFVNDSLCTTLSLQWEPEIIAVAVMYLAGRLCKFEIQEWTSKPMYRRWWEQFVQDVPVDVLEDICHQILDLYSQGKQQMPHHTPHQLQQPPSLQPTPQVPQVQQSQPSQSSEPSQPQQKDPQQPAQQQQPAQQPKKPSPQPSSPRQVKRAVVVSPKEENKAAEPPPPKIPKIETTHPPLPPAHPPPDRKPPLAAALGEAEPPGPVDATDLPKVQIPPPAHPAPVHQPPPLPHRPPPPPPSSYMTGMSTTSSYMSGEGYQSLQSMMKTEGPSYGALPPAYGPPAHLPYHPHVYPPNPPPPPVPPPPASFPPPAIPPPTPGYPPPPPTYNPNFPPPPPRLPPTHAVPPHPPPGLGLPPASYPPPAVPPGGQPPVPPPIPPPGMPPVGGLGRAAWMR
Test: TR-FRET Lanthascreen Eu Kinase Binding assay
Conditions: difference between highest and lowest activity across concentration range; in %
Excerpt: The TR-FRET Lanthascreen Eu Kinase Binding assay for CDK9/cyclin K was purchased from ThermoFisher and performed as per manufacturer instructions.
Counter-ions that a name gives are not always drawn.
In this section we review reported Efficacy values for a set of compounds.
Note: the reply should be a number with no unit written.

compound	Efficacy
CC(=O)c1c(C)c2cnc(Nc3ccc(N4CCNCC4)cn3)nc2n(C2CCCC2)c1=O [Palbociclib (PD-0332991) HCl]	-92.3
O=C1Nc2ccc(F)cc2/C1=C1\Nc2ccccc2\C1=N\O [5 -Fluoroindirubinoxime]	-80.2
O=C1Cc2c([nH]c3ccc([N+](=O)[O-])cc23)-c2ccccc2N1 [Alsterpaullone]	-82.6
Nc1n[nH]c(N)c1N=Nc1ccc(O)cc1 (stereo in doubt) [CAY10574]	-84.6
NS(=O)(=O)c1ccc(NN=C2C(=O)Nc3ccc(Br)cc32)cc1 [Cdk2 Inhibitor II]	-67.2

Task item: Give its Efficacy value. Item: O=C1Cc2c([nH]c3ccc(Br)cc23)-c2ccccc2N1 [Kenpaullone]
Reply: -80.5

Task item: Give its Efficacy value. Item: C[S+](=O)([O-])N1CCC(NC(=O)c2[nH]ncc2NC(=O)c2c(Cl)cccc2Cl)CC1 [NVP-LCQ195]
Reply: -72.2
